Every entry's value here was drawn from ChEMBL document CHEMBL1201862.

Tested on: EKVX
Assay: NCI tumour cell line growth inhibition, 48 h
The source made the active and inactive calls. Rule as the data show it: active = GI50 up to about 1.1 µM and inactive = higher.
Outcome codes: active, inactive

>  <MOLECULE>
CN(C)Cc1cc(C(=O)/C=C/c2ccc(Cl)c(Cl)c2)cc(CN(C)C)c1O

>  <DISCRETE LABEL>
inactive

$$$$
>  <MOLECULE>
C=CCN1CCC23c4c5ccc(O)c4OC2C(=NN=C2CCC4(O)C6Cc7ccc(O)c8c7C4(CCN6CC=C)C2O8)CCC3(O)C1C5 (centres undefined)

>  <DISCRETE LABEL>
inactive

$$$$
>  <MOLECULE>
CC(C)c1nc(Cl)nc(Cl)c1Cl

>  <DISCRETE LABEL>
inactive

$$$$
>  <MOLECULE>
Cc1ccc(-c2cc(O)c3nc4ccccc4n3c2)cc1

>  <DISCRETE LABEL>
inactive

$$$$
>  <MOLECULE>
N#CC(C(=N/O)/C(=N/O)C(C#N)c1ccc(Cl)cc1)c1ccc(Cl)cc1 (centres undefined)

>  <DISCRETE LABEL>
inactive

$$$$
>  <MOLECULE>
c1ccc(SCCc2ccncc2)cc1

>  <DISCRETE LABEL>
inactive

$$$$
>  <MOLECULE>
COc1cc(C2CC(C)(N3CCCC3)Oc3cc4c(cc32)OCO4)cc(OC)c1OC (centres undefined)

>  <DISCRETE LABEL>
active

$$$$
>  <MOLECULE>
CC1(C)O[C@@H]([C@H](O)CO)[C@H](O)[C@@H](C2SCCCS2)O1

>  <DISCRETE LABEL>
inactive

$$$$
>  <MOLECULE>
COC(=O)[C@H](C)NC(=O)[C@H](NS(=O)(=O)c1nc2ccccc2s1)c1ccccc1

>  <DISCRETE LABEL>
inactive

$$$$
>  <MOLECULE>
C=Cc1ccc(C)[n+](C[Si](C)(C)O[Si](C)(C)C[n+]2cc(C=C)ccc2C)c1

>  <DISCRETE LABEL>
inactive

$$$$
>  <MOLECULE>
Nc1n[nH]c2nc3ccccc3nc12 [QUINOXALINE1]

>  <DISCRETE LABEL>
inactive

$$$$
>  <MOLECULE>
Cc1cccc(C)c1N1C(=O)C2c3[nH]c4ccccc4c3C3CCC(C(C)(C)C)CC3C2C1=O (centres undefined)

>  <DISCRETE LABEL>
inactive

$$$$
>  <MOLECULE>
N#Cc1ccc(NC(=O)C(CC(=O)OCc2ccccc2)NC(=O)OCc2ccccc2)cc1 (centres undefined)

>  <DISCRETE LABEL>
inactive

$$$$
>  <MOLECULE>
COc1ccc(C(=O)O)c2c(=O)c3cccnc3[nH]c12

>  <DISCRETE LABEL>
inactive

$$$$

* * *

Tested on: HT-29
Experiment: NCI tumour cell line growth inhibition, 48 h
Activity calls are given as the source filed them. No stated cut-off is given here; in the data, active = GI50 up to about 1.1 µM and inactive = higher.
GI50 values for the compounds below.
READOUT TYPE: GI50

>  <COMPOUND>
O=C(CC12C3C4C1C1C2C3C41CC(=O)NO)NO (configuration not stated)

>  <TARGET OF ASSAY>
HT-29

>  <READOUT TYPE>
GI50

>  <RESULT>
29.4 µM (inactive)

$$$$
>  <COMPOUND>
CN(CCN(C)C(=O)CCOS(C)(=O)=O)C(=O)CCOS(C)(=O)=O

>  <TARGET OF ASSAY>
HT-29

>  <READOUT TYPE>
GI50

>  <RESULT>
> 100 µM (inactive)

$$$$
>  <COMPOUND>
CC(=O)NCCC1CN(C(=O)/C=C\I)c2ccccc21 (configuration not stated)

>  <TARGET OF ASSAY>
HT-29

>  <READOUT TYPE>
GI50

>  <RESULT>
11.7 µM (inactive)

$$$$
>  <COMPOUND>
CC[C@](C)(O)C(=O)O[C@H]1C(=O)O[C@@H]2C[C@H]3C(C)=C[C@H](O)[C@@H](O)[C@]3(C)[C@H]3[C@@]4(O)OC[C@]32[C@@H]1[C@@H](C)[C@H]4O

>  <TARGET OF ASSAY>
HT-29

>  <READOUT TYPE>
GI50

>  <RESULT>
29.9 µM (inactive)

$$$$
>  <COMPOUND>
C[C@]12CC[C@H](O)CC1=CC[C@@H]1C2CC[C@]2(C)c3nn(-c4ccc(F)cc4)nc3CC12 (some centres not stated)

>  <TARGET OF ASSAY>
HT-29

>  <READOUT TYPE>
GI50

>  <RESULT>
22.4 µM (inactive)

$$$$
>  <COMPOUND>
Nc1cccc(OCc2nc(N)nc(N)c2-c2ccc(Cl)cc2)c1

>  <TARGET OF ASSAY>
HT-29

>  <READOUT TYPE>
GI50

>  <RESULT>
39.4 µM (inactive)

$$$$
>  <COMPOUND>
COc1ccc(C2Oc3ccc(Cl)cc3C=C2[N+](=O)[O-])cc1 (configuration not stated)

>  <TARGET OF ASSAY>
HT-29

>  <READOUT TYPE>
GI50

>  <RESULT>
> 100 µM (inactive)

$$$$
>  <COMPOUND>
Cc1cc2c(=O)c3ccc(Cl)cc3[nH]c2c(C(=O)O)c1C

>  <TARGET OF ASSAY>
HT-29

>  <READOUT TYPE>
GI50

>  <RESULT>
> 100 µM (inactive)

$$$$
>  <COMPOUND>
N#CC(C#N)=c1c2nsnc2c(=C(C#N)C#N)c2nsnc12

>  <TARGET OF ASSAY>
HT-29

>  <READOUT TYPE>
GI50

>  <RESULT>
1.59 µM (inactive)

$$$$
>  <COMPOUND>
O=C1CCN2C(=O)CCN12

>  <TARGET OF ASSAY>
HT-29

>  <READOUT TYPE>
GI50

>  <RESULT>
> 100 µM (inactive)

$$$$
>  <COMPOUND>
O=C1OC(C2Cc3ccccc3C2=O)c2ccccc21 (configuration not stated)

>  <TARGET OF ASSAY>
HT-29

>  <READOUT TYPE>
GI50

>  <RESULT>
26.1 µM (inactive)

$$$$
>  <COMPOUND>
Cc1ccc(S(=O)(=O)Oc2cc(S(=O)(=O)O)cc3cc(S(=O)(=O)O)cc(N)c23)cc1

>  <TARGET OF ASSAY>
HT-29

>  <READOUT TYPE>
GI50

>  <RESULT>
> 100 µM (inactive)

$$$$
